Each entry below carries its recorded ED50.
- TEST_SYSTEM: peripheral opioid receptors (Mus musculus)
- Construct: Mice maintained (6 mice/cage) on 0.01M saccharin water with 1 g/1 morphine sulfate; from tissue; host or cells: living morphine-maintained mice (in vivo test; endogenous receptor)
- Sequence (P42866 whole entry): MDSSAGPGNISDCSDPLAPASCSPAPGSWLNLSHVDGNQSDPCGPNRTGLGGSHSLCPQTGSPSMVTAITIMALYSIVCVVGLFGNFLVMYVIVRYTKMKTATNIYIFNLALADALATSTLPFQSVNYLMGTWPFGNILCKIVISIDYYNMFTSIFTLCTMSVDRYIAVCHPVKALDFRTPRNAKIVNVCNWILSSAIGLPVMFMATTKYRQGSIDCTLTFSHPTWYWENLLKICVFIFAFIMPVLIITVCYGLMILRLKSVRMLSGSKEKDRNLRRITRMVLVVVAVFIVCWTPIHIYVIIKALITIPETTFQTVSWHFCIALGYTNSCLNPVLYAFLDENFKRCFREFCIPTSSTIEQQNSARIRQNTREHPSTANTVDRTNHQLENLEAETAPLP
- EXPERIMENTAL_DETAILS: precipitated diarrhea in morphine-maintained mice (peripheral opioid activity) and comparison with the writhing test
- Assay type: in vivo
- ASSAY_CONDITIONS: mouse, 0.5 h, morphine-maintained mice; antagonist subcutaneous or oral; 30 min observation
- Method: Determinations of peripheral opioid activity were conducted. […] The mice were then monitored visually for 30 minutes post-injection for the presence of jumping and of diarrhea. Jumping was scored as positive if at least one jump occurred in 30 min. Diarrhea was scored as positive when feces were moist enough to stain the white paper at the base of the cylinder. […] Lower doses of the antagonist compounds were tested until threshold doses for diarrhea were determined. […]
Structures can show the parent of a compound that is named as a salt.
MEASURE: ED50

INSERT INTO results (molecule, measure, assay_value) VALUES
  ('C[C@H]1CN(CC(Cc2ccccc2)C(=O)NCC(=O)NCC(=O)NCc2ccccc2)CC[C@@]1(C)c1cccc(O)c1 (relative stereo) [Example 73]', 'ED50', '1.73 mg/kg'),
  ('C[C@H]1CN(CC(Cc2ccccc2)C(=O)NCCN(C)C)CC[C@@]1(C)c1cccc(O)c1 (relative stereo) [Example 69, dihydrochloride]', 'ED50', '1.7 mg/kg'),
  ('CCOC(=O)CCCNC(=O)C(Cc1ccccc1)CN1CC[C@@](C)(c2cccc(O)c2)[C@@H](C)C1 (stereo partly drawn) [Example 61, monohydrochloride monohydrate]', 'ED50', '0.05 mg/kg');
